Measured values drawn from the supplement of paper PMC10567573 for this set.

B1: DLC1 (parent)
chain: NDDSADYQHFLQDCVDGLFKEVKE

Variants of: B1
TEST_SUMMARY: protein stability index of a GFP-peptide fusion (GPS, HEK-293T) (PSI 1-6); higher = more stable;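 further: lentivirally expressed fusions sorted by FACS into six bins by GFP to DsRed ratio, PSI derived from sequencing read proportions per bin multiplied by bin number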
APPLIED_CONDITIONS: c terminus: a fixed tail appended
Task for the reader: assign each of the following variants its reported protein stability index.

// for each variant in input: emit protein stability index
1. D13A
2. L18H
3. G17N
4. K23H
5. Y7G
6. H9E
7. S4G
8. A5S

Found:
1. 1.79
2. 5.37
3. 2.39
4. 3.88
5. 4.01
6. 3.47
7. 3.56
8. 1.91

// for each variant in input: emit protein stability index
1. E24V
2. F10W
3. D13Y

Found:
2.69
1.98
2.14
